Data origin: patent US4522946A

Collected CAR, ED50 (dose which caused a 50% failure in avoidance response) values appear next to each entry.
system: conditioned avoidance response; assay: conditioned avoidance response test (CAR), neuroleptic action; format: in vivo; conditions: intraperitoneal; mg per kg body weight

Br.CN1CC2c3ccccc3CCc3cc(O)c(O)c(c32)C1Cc1ccccc1 (stereo not shown) :: 1.6 ± 0.3 mg/kg, i.p.
CC[C@H]1c2c(O)c(OC)cc3c2[C@@H](CN1C)c1ccccc1CC3 (relative stereo) :: 3.0 ± 0.8 mg/kg, i.p.
COc1cc2c3c(c1O)C(Cc1ccccc1)N(C)CC3c1ccccc1CC2 (stereo not shown) :: 5.4 ± 1.8 mg/kg, i.p.

Per the records, this molecule ( Br.CC1c2c(O)c(O)cc3c2C(CN1C)c1ccccc1CC3 (stereo not shown) ) has CAR, ED50 (dose which caused a 50% failure in avoidance response) equal to 4.4 ± 2.0 mg/kg, i.p.

Per the records, this molecule ( Br.CC[C@H]1c2c(O)c(O)cc3c2[C@H](CN1C)c1ccccc1CC3 (relative stereo) ) has CAR, ED50 (dose which caused a 50% failure in avoidance response) equal to 1.5 ± 0.4 mg/kg, i.p.

Per the records, this molecule ( Br.CCCC1c2c(O)c(O)cc3c2C(CN1C)c1ccccc1CC3 (stereo not shown) ) has CAR, ED50 (dose which caused a 50% failure in avoidance response) equal to 4.4 ± 1.4 mg/kg, i.p.

Per the records, this molecule ( Br.CC(C)C1c2c(O)c(O)cc3c2C(CN1C)c1ccccc1CC3 (stereo not shown) ) has CAR, ED50 (dose which caused a 50% failure in avoidance response) equal to 2.4 ± 0.6 mg/kg, i.p.
